Below, each of the compounds is paired with its reported normalized growth value.
# Assay method text: chemical genetic growth profiling, strain panel (AID 1159580);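 further: tested at 20 µM; growth read once vehicle control cultures reached saturation at 30 °C; 1 = growth at the plate median or of vehicle wells; lower values mean less growth of the strain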
# Condition summary: S. cerevisiae deletion strains, growth OD, locus YML032C, strain rad52, stronger effect = lower value
The whole screen tested about 5,500 compounds, of which about 2,000 (36%) were called active. About 18% were inconclusive and are not listed. This is one part of the list.

>  <Compound>
O=c1c(-c2ccc3c(c2)OCO3)coc2cc(O)ccc12

>  <normalized growth>
0.969

$$$$
>  <Compound>
CC1(C)C=Cc2c(cc3occ(-c4ccc5c(c4)OCO5)c(=O)c3c2O)O1

>  <normalized growth>
1

$$$$
>  <Compound>
c1coc(CNc2ncnc3nc[nH]c23)c1

>  <normalized growth>
0.993

$$$$
>  <Compound>
N#C/C(=C\c1ccc(O)cc1)C(=O)O

>  <normalized growth>
1.03

$$$$
>  <Compound>
O=c1[nH]cnc2nc[nH]c12

>  <normalized growth>
0.988

$$$$
>  <Compound>
Nc1ncnc2nc[nH]c12

>  <normalized growth>
0.972

$$$$
>  <Compound>
C[N+]1(C)C2CC[C@H]1CC(OC(=O)C(O)c1ccccc1)C2 (some centres not stated)

>  <normalized growth>
0.999

$$$$
>  <Compound>
Cc1c(N(C)CS(=O)(=O)O)c(=O)n(-c2ccccc2)n1C

>  <normalized growth>
0.999

$$$$
>  <Compound>
Fc1ccc(C(c2ccc(F)cc2)N2CCN(C/C=C/c3ccccc3)CC2)cc1

>  <normalized growth>
0.948

$$$$
>  <Compound>
CC(=O)Oc1ccc2c(c1)CCC1C2CC[C@@]2(C)C1CC[C@@H]2OC(C)=O (some centres not stated)

>  <normalized growth>
0.974

$$$$
>  <Compound>
O=c1[nH]c2ccccc2n1C1CCN(CCCC(c2ccc(F)cc2)c2ccc(F)cc2)CC1

>  <normalized growth>
0.972

$$$$
>  <Compound>
CN1CCN(C(c2ccccc2)c2ccccc2)CC1

>  <normalized growth>
0.959

$$$$

###

# Assay method text: chemical genetic growth profiling, strain panel (AID 1159580)
# Condition summary: S. cerevisiae deletion strains, growth OD, locus YNL175C, strain NOP13, stronger effect = lower value
Hit rate of the full screen: of about 5,500 compounds, about 2,000 (36%) were called active. Another 18% or so got no clear call; they are omitted. Some of the results follow.

>  <Molecule>
COC1(C2=NCCN2)COc2ccccc2O1 (stereo not drawn)

>  <normalized growth>
1

$$$$
>  <Molecule>
COc1ccccc1CNCCCCCCNCCCCCCCCNCCCCCCNCc1ccccc1OC

>  <normalized growth>
0.992

$$$$
>  <Molecule>
C=CCN1CC[C@]23CCCCC2[C@H]1Cc1ccc(O)cc13 (stereo partly drawn)

>  <normalized growth>
1.01

$$$$
>  <Molecule>
O=C(O)CCC/C=C\C[C@@H]1[C@@H](/C=C/[C@H](O)C2Cc3ccccc3C2)[C@@H](F)C[C@@H]1O

>  <normalized growth>
0.982

$$$$
>  <Molecule>
N[C@@]1(C(=O)O)CC[C@@H](C(=O)O)C1

>  <normalized growth>
1.01

$$$$
>  <Molecule>
C#CCN1C(C)=C(C(=O)OC)C(c2cccc([N+](=O)[O-])c2)C(C(=O)OCC)=C1C (stereo not drawn)

>  <normalized growth>
1.04

$$$$
>  <Molecule>
CC(=O)O[C@H]1CC2(C)[C@@H](C[C@@H](O)[C@H]3[C@@]4(C)CC[C@@H](O)[C@@H](C)[C@@H]4CC[C@@]32C)C1=C(CCC=C(C)C)C(=O)O (stereo partly drawn)

>  <normalized growth>
1

$$$$
>  <Molecule>
NC(=S)c1ccc[n+]([C@@H]2O[C@@H](COP(=O)([O-])OP(=O)(O)OC[C@H]3O[C@@H](n4cnc5c(N)ncnc54)C(OP(=O)(O)O)[C@H]3O)C(O)C2O)c1 (stereo partly drawn)

>  <normalized growth>
1

$$$$

###

# Assay method text: chemical genetic growth profiling, strain panel (AID 1159580);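 further: tested at 20 µM; growth read once vehicle control cultures reached saturation at 30 °C; 1 = growth at the plate median or of vehicle wells; lower values mean less growth of the strain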
# Condition summary: S. cerevisiae deletion strains, growth OD, locus YNR030W, strain Alg12, stronger effect = lower value
The whole screen tested about 5,500 compounds, of which about 2,000 (36%) were called active. About 18% were inconclusive and are not listed. Some of the results follow.
With a cut-off of 1, any normalized growth strictly below it is called 1 (yes); any normalized growth meeting it or above is called 0 (no).

>  <Molecule>
COc1cc(NC(=O)Nc2ccc(OC(F)(F)F)cc2)cc(C(F)(F)F)c1

>  <Assigned category>
1 (yes)

$$$$
>  <Molecule>
COC(=O)c1csc2c(C(F)(F)F)cc(N3CCN(S(=O)(=O)c4ccc(C)cc4)CC3)nc12

>  <Assigned category>
0 (no)

$$$$
>  <Molecule>
CCOC(=O)c1csc(N/N=C2/CCCc3ccccc32)n1

>  <Assigned category>
1 (yes)

$$$$

###

# Assay method text: chemical genetic growth profiling, strain panel (AID 1159580);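 further: tested at 20 µM; growth read once vehicle control cultures reached saturation at 30 °C; 1 = growth at the plate median or of vehicle wells; lower values mean less growth of the strain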
# Condition summary: S. cerevisiae deletion strains, growth OD, locus YPR167C, strain met16, stronger effect = lower value
Out of some 5,500 compounds screened, about 2,000 (36%) were called active. Not shown: some 18% with an inconclusive outcome. The list shows a part of the results.
With a cut-off of 1, any normalized growth strictly below it is called TRUE; any normalized growth meeting it or above is called FALSE.

>  <Molecule>
COc1cc(OC)cc(OC)c1

>  <Assigned category>
TRUE

$$$$
>  <Molecule>
COc1cc(OC)c(-c2c(OC)cc(OC)cc2OC)c(OC)c1

>  <Assigned category>
FALSE

$$$$

###

Below, each of the compounds is paired with its reported normalized growth value.
# Assay method text: chemical genetic growth profiling, strain panel (AID 1159580);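 further: tested at 20 µM; growth read once vehicle control cultures reached saturation at 30 °C; 1 = growth at the plate median or of vehicle wells; lower values mean less growth of the strain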
# Condition summary: S. cerevisiae deletion strains, growth OD, locus YNR049C, strain mso1, stronger effect = lower value
Hit rate of the full screen: of about 5,500 compounds, about 2,000 (36%) were called active. Inconclusive results (about 18%) are left out. This is one part of the list.

>  <Compound>
CCOC(=O)C1=C(C)NC(C)=C(C(=O)OC)C1c1cccc([N+](=O)[O-])c1 (configuration not stated)

>  <normalized growth>
1.01

$$$$
>  <Compound>
O=c1n(CCCN2CCN(c3cccc(Cl)c3)CC2)nc2ccccn12

>  <normalized growth>
0.979

$$$$
>  <Compound>
Fc1ccc(C(c2ccc(F)cc2)N2CCN(C/C=C/c3ccccc3)CC2)cc1

>  <normalized growth>
0.334

$$$$
>  <Compound>
C=C(C)c1cc2cc(C(C)=O)c(O)cc2o1

>  <normalized growth>
0.976

$$$$
>  <Compound>
Nc1ncnc2nc[nH]c12

>  <normalized growth>
0.982

$$$$
>  <Compound>
c1coc(CNc2ncnc3nc[nH]c23)c1

>  <normalized growth>
0.999

$$$$
>  <Compound>
O=c1ccc2cc(O[C@@H]3O[C@H](CO)[C@@H](O)[C@H](O)[C@H]3O)c(O)cc2o1

>  <normalized growth>
0.973

$$$$
>  <Compound>
COc1ccc2ccc(=O)oc2c1CC=C(C)C

>  <normalized growth>
0.914

$$$$
>  <Compound>
O=c1[nH]cnc2nc[nH]c12

>  <normalized growth>
1.03

$$$$
>  <Compound>
CN1CCN(CCCN2c3ccccc3Sc3ccc(Cl)cc32)CC1

>  <normalized growth>
0.986

$$$$
>  <Compound>
CC(C)=CCOc1cc2oc(=O)ccc2cc1O

>  <normalized growth>
0.942

$$$$
>  <Compound>
OCCN1CCN(CCCN2c3ccccc3Sc3ccc(Cl)cc32)CC1

>  <normalized growth>
1.01

$$$$
>  <Compound>
CC(C)=CCC/C(C)=C/COc1ccc2ccc(=O)oc2c1

>  <normalized growth>
0.996

$$$$
>  <Compound>
CC(C)=CCOc1c2occc2cc2ccc(=O)oc12

>  <normalized growth>
0.914

$$$$
>  <Compound>
COc1ccc2[nH]cc(CCNC(C)=O)c2c1

>  <normalized growth>
0.972

$$$$
>  <Compound>
CCS(=O)(=O)CCn1c([N+](=O)[O-])cnc1C

>  <normalized growth>
0.997

$$$$
>  <Compound>
CC1(C)S[C@@H]2[C@H](NC(=O)COc3ccccc3)C(=O)N2[C@H]1C(=O)O

>  <normalized growth>
0.994

$$$$
>  <Compound>
Nc1ncnc2c1ncn2[C@@H]1O[C@H](CO)[C@@H](O)[C@@H]1O

>  <normalized growth>
1.02

$$$$
>  <Compound>
C[C@]12C=CC(=O)C=C1CCC1C2C(=O)C[C@@]2(C)C1CC[C@]2(O)C(=O)CO (some centres not stated)

>  <normalized growth>
0.999

$$$$
>  <Compound>
COc1cc2ccc(=O)oc2c(OC)c1OC

>  <normalized growth>
0.954

$$$$
>  <Compound>
Cc1cccc(N(C)C(=S)Oc2ccc3ccccc3c2)c1

>  <normalized growth>
0.999

$$$$
>  <Compound>
COc1ccc2c(=O)c(CC(=O)O)coc2c1

>  <normalized growth>
0.973

$$$$
>  <Compound>
OC[C@@H](O)C(O[C@@H]1O[C@H](CO)[C@H](O)[C@H](O)[C@H]1O)[C@H](O)[C@@H](O)CO (some centres not stated)

>  <normalized growth>
0.981

$$$$
>  <Compound>
C=C1CC2C(CCC3(C)C(=O)CCC23)C2(C)C=CC(=O)C=C12 (configuration not stated)

>  <normalized growth>
0.932

$$$$
>  <Compound>
COc1cc(O)c(C(=O)O)c(O)c1

>  <normalized growth>
0.98

$$$$
>  <Compound>
COc1cc2ccc(=O)oc2cc1O

>  <normalized growth>
0.955

$$$$
>  <Compound>
C[C@]12C=CC(=O)C=C1CCC1C2CC[C@]2(C)C(=O)CCC12 (some centres not stated)

>  <normalized growth>
0.983

$$$$
>  <Compound>
N#Cc1ccc2c(c1)N(CCCN1CCC(O)CC1)c1ccccc1S2

>  <normalized growth>
0.991

$$$$
>  <Compound>
CC1(C)C=Cc2c(cc3occ(-c4ccc5c(c4)OCO5)c(=O)c3c2O)O1

>  <normalized growth>
0.991

$$$$
>  <Compound>
CC(C)CCCC(C)[C@H]1CCC2C3CC[C@H]4CC(=O)CC[C@]4(C)C3CC[C@@]21C (some centres not stated)

>  <normalized growth>
0.986

$$$$
>  <Compound>
Cn1c([N+](=O)[O-])cnc1COC(N)=O

>  <normalized growth>
1.01

$$$$
>  <Compound>
COc1c2c(cc3occ(-c4ccc5c(c4)OCO5)c(=O)c13)OC(C)(C)C=C2

>  <normalized growth>
1

$$$$

Origin of measurements: PubChem BioAssay AID1159580
